# TEST DESCRIPTION: Toxicity liver stage against HepG2, at 10uM
# Type: cell-based
# Design: test concentration 10 uM, cell line HepG2-A16-CD81EGFP
# PARTICULARS: human, HepG2-A16-CD81EGFP cells; read-out: INHIBITION
RECORDED METRIC: cytotoxicity at 10 µM (%)

CNC(=O)C1Cn2ccnc2C2(CCN(Cc3ccncc3)CC2)O1 (stereo unspecified)    -74.9
CN(Cc1ccco1)Cc1cnc2n1CCN(c1ccccn1)CC2    -0.48
CCCc1nc(C)c(CN2CC3(CCOC3)CCC2=O)s1 (stereo unspecified)    -10.5
CCc1ccc(CNC2(c3ccc(F)cc3)CCOCC2)o1    4.68
O=c1[nH][nH]c2cn(-c3ccc(F)cc3)c(=O)n12    -1.45
CN1CCCCC1CC(=O)Nc1ccc2ncn(C)c2c1 (stereo unspecified)    4.18
CC(C)n1ccnc1Cn1ccc2ncccc2c1=O    -4.65
NC(=O)c1c(SCCN2CCOCC2)sc2c(O)cc(=O)[nH]c12    1.17
CN(C)[C@@H]1C[C@@H](CO)N(C(=O)Nc2cccc(F)c2F)C1    -0.103
CC(C)CC(NC(=O)c1ccn(C)c(=O)c1)c1ccccc1 (stereo unspecified)    -6.76
CC(C)N1[C@H](Cn2cccn2)C[C@@H]2CN(Cc3ccoc3)CC[C@@H]21    -153
COc1cc(NC(=O)NC2CCOCC2)ccc1N1CCOC1=O    -4.59
CN(Cc1ccccc1)C(=O)CCNS(=O)(=O)c1cccnc1    -1.24
O=C(CCCOc1ccc(F)cc1F)N1CCCC1Cn1cccn1 (stereo unspecified)    -5.67
CC(C)(C)n1nc(C2CC2)cc1C(=O)NCC1(C(N)=O)CCOCC1    -11.1
CCC1c2ccccc2CCN1CCCS(C)(=O)=O (stereo unspecified)    1.75

---

Entries and their cytotoxicity at 10 µM values follow.
# TEST DESCRIPTION: Toxicity liver stage against HepG2, at 10uM
# Assay type: cell-based
# Parameters: test concentration 10 uM, cell line HepG2-A16-CD81EGFP
# PARTICULARS: human, HepG2-A16-CD81EGFP cells; read-out: INHIBITION
RECORDED METRIC: cytotoxicity at 10 µM (%)

Cc1nn(C)cc1CN(C)C(=O)c1cnccn1    -5.2
O=C1CN(Cc2cc(O)c3cccc(F)c3n2)CCN1C1CCCC1    4.45
Oc1ccc([C@H]2Oc3cc(O)cc(O)c3C[C@@H]2O)cc1    4.94
CSCC(C)NCc1ccc2[nH]c(C)c(C)c2c1 (centres undefined)    -0.369
Cc1cccc(CN2C[C@@H]3OCCN(S(=O)(=O)N(C)C)[C@@H]3C2)n1    11.2
Cc1cnc2n(c1=O)CC(C(=O)Nc1ccccc1Cl)CS2 (centres undefined)    -10.7
COCCN1CCC2(CCCN(C(=O)c3cncn3C)C2)CC1    -1.4
O=C(Nc1ccccc1)C1CCCN(c2cc(-n3cncn3)ncn2)C1 (centres undefined)    -2.1
O=C(NCCc1cccs1)N1CCC[C@H]1CO    10.3
O=C1CC2(CCCCN2C(=O)Cc2ccccc2)CN1c1cccnc1 (centres undefined)    -2.71
O=C(CCc1ccccn1)N1CCCC1    -6.96
CC(=O)N(C)Cc1ccccc1NCc1c(C)noc1C    5.76
CNC(=O)c1ccc(CNC(=O)c2cc(C(C)C)n(C)n2)cc1    -9.71
COc1ccc(C2(CNC(C)c3nnc(C)o3)CCCCC2)cc1 (centres undefined)    4.21
Cc1noc(C)c1CCN1CCCC1c1nc2cc(F)ccc2[nH]1 (centres undefined)    9.3
CN1CC(=O)N(c2ccccc2)CC12CCN(S(C)(=O)=O)C2 (centres undefined)    -75.7
Cc1nc2n(n1)CC(NCc1nc3ccccc3o1)CC2 (centres undefined)    -0.608
Cc1nc(CN2CCO[C@@H]3CN(C(=O)NC(C)C)CC[C@@H]3C2)cs1    0.41
O=C(COC1CCCC1)Nc1ncn(CC(=O)N2CCCCCC2)n1    -8.16

---

Entries and their cytotoxicity at 10 µM values follow.
# TEST DESCRIPTION: Toxicity liver stage against HepG2, at 10uM
# Type: cell-based
# Parameters: test concentration 10 uM, cell line HepG2-A16-CD81EGFP
# PARTICULARS: human, HepG2-A16-CD81EGFP cells; read-out: INHIBITION
RECORDED METRIC: cytotoxicity at 10 µM (%)

N#Cc1ccc(N2CCC3(CCCN(c4ccccn4)C3)C2)nc1 (centres undefined)    15.6
Cc1cc(O)ncc1NS(=O)(=O)c1cccc(F)c1F    0.753
N[C@H]1CN(C(=O)c2ccc3[nH]c(=O)c(=O)[nH]c3c2)C[C@@H]1c1ccccc1    2.19
c1cnc(N2C[C@H](OCC3CCOCC3)[C@H]3COC[C@H]32)nc1    -1.92

---

# TEST DESCRIPTION: Toxicity liver stage against HepG2, at 10uM
# Assay type: cell-based
# Parameters: test concentration 10 uM, cell line HepG2-A16-CD81EGFP
# PARTICULARS: human, HepG2-A16-CD81EGFP cells; read-out: INHIBITION
RECORDED METRIC: cytotoxicity at 10 µM

CCn1ccnc1CN(C)CC1CCCN1c1cccnn1 (stereo not drawn)    -0.0722%
Cc1nc(CNC(C)c2cccc(N3CCCC3=O)c2)cs1 (stereo not drawn)    5.01%
CCCC(=O)NCCc1cc(N2CCN(C(C)=O)CC2)nc(C2CC2)n1    -28.2%
O=C1[C@@H]2CCN(CC3CC3)C[C@@H]2OCCN1c1cccnc1    8.1%
CN1CCc2nnc(C3CCCN3S(=O)(=O)c3ccc(F)cc3)n2CC1 (stereo not drawn)    -0.594%
Cc1c(Br)cccc1C(=O)Nc1cc(C(N)=O)n(C)c1    0.71%
COc1ccc(-c2nc(CNC3CCc4nc(C)nn4C3)no2)cc1 (stereo not drawn)    -3.42%
CC(C(=O)Nc1cnn(CC(N)=O)c1)c1ccc(Cl)s1 (stereo not drawn)    10.9%
Cc1cc(C(=O)N2CCCN(Cc3cnn(C)c3)CC2)no1    -2.92%
COCC1CC2(CCN(C(=O)C3CCSCC3)CC2)CO1 (stereo not drawn)    -8.93%
Cc1csc(C(C)(C)NCc2ncc(-c3ccccc3)o2)n1    7.95%
Cn1ncc2c(N3CCS(=O)(=O)CC3)nc(C3CCCC3)nc21    -1.31%
NC(=O)Nc1cccc(Oc2ccccn2)c1    4.39%
O=C(CCCc1ccccn1)N1CCOc2ccc(F)cc21    9.81%
Cc1nc(N(C)C)nc(C)c1NS(=O)(=O)c1ccc(OC(F)(F)F)cc1    7.23%
CC(C)Oc1ncccc1CNC(=O)N1CCCC1c1ccsc1 (stereo not drawn)    -8.25%
COc1ccc(S(=O)(=O)NCCC(O)c2cccs2)c(C)c1 (stereo not drawn)    -1.13%
Cc1ccc(C(=O)N2CC(C(N)=O)O[C@H](C)C2)c(C)c1 (stereo partly drawn)    -0.29%
CC(C)(NS(C)(=O)=O)c1nc(-c2ccc(F)cc2Cl)no1    4.98%
CC(C)c1nnc(CN2CCc3ccc(S(N)(=O)=O)cc32)o1    3.2%
CCc1c(C(=O)N2CCN(C)[C@@H]3CS(=O)(=O)C[C@@H]32)[nH]c2ccccc12    -6.08%
COc1ccc(C(=O)N2CCCC3(CCCC(=O)N3C)C2)cc1 (stereo not drawn)    -10.1%
CCN(CC)C(=O)CSc1ccc(C(F)(F)F)cn1    12.7%
NC(=O)Cn1ccnc1C1CCCN(Cc2cccc(Cl)c2F)C1 (stereo not drawn)    7.81%
Cc1nc(CN(C)C2CCN(Cc3cnc(C)s3)C2)no1 (stereo not drawn)    -4.8%
CNC(=O)c1cn[nH]c1C1CCN(Cc2ccccc2F)C1 (stereo not drawn)    -30.8%
CCOCC1CN(S(C)(=O)=O)Cc2nn(C)cc21 (stereo not drawn)    -95.9%
O=C1CCC2(CCCN(C(=O)c3cnccn3)CC2)N1 (stereo not drawn)    -2.66%
COCC1CCCCN1Cc1nc(-c2ccoc2)oc1C (stereo not drawn)    1.93%
COc1ccc2cc(NC(=O)CCNc3ncccn3)cnc2c1    -43%
Cc1ccc(C)c(C(=O)NCC(c2cccn2C)N2CCCCCC2)c1 (stereo not drawn)    5.64%
Cc1cnn(CC2CCCN2C(=O)c2ccc3[nH]c(=O)[nH]c3c2)c1 (stereo not drawn)    -3.98%
Cc1ccc(N2CCCc3sc(C(=O)NCc4cccnc4)nc32)nn1    -2.96%
COc1ccc(C(=O)N2CC[C@](C)(O)[C@H](C)C2)cc1N1CCOCC1    14.9%
CCS(=O)(=O)N1CCc2c(COCc3ccncc3)cncc2C1    -84.1%
CCc1cnc(CN2CCC(N(Cc3noc(CC)n3)C(C)=O)C2)o1 (stereo not drawn)    -4.17%
Cc1ccc(CC(=O)N(C)CC2(O)CCN(c3ccccn3)C2)s1 (stereo not drawn)    -10.4%
O=C(NCCC1CN(Cc2cccnc2)CCO1)c1ccsc1 (stereo not drawn)    -8.03%
COc1ccc([C@@H]2CN(c3cc(OC)ncn3)C[C@H]2N(C)C)cc1    6.98%
CCOc1ccc(C2c3c(N)nc(SC)nc3N=C3COC(=O)C32)cc1 (stereo not drawn)    30%
O=C1NCCCCC1NCc1csc(-c2ccccn2)n1 (stereo not drawn)    7.5%
COC(=O)c1ccc(N2CCN(C(=O)C(C)C)C(C)C2)cc1 (stereo not drawn)    -10.4%
c1ncn(CCNC2CCCN(Cc3noc(C4CC4)n3)C2)n1 (stereo not drawn)    -2.77%

Data provenance is ChEMBL document CHEMBL4513216.
